- study.system: T1, human CI-M6PR domain1-3His6 (human, UniProt P11717 41-467)
- T1 construct: Recombinant, made in HEK293 cells; Biotinylated with NHS-PEG4-biotin for BLI; unlabelled in SEC-MALLS and crystallisation; also called CI-M6PR hDom1-3His6; hDom1-3His6
- assay: BLI, biotinylated antigen on SA tips, global 1:1 fit, association at pH 7.4
Readings of kon for the listed binders
The response must be a number in M⁻¹ s⁻¹ with no trailing unit.

Reference set (5 entries):
INSERT INTO results (binder, endpoint_value) VALUES
  ('anti-CI-M6PR VHH7 (VHH, Purified by IMAC, so tagged; Labelled with Alexa Fluor 488 (NHS ester) in the imaging experiments) VHH: QVQLQESGGGLVQPGGSLRLSCAASGIIFSDNRMDWYRQAPGKQREWVATLASYGWKTYADSVKGRFTISRDNTKNTVYLRMNSLKPEDTAVYYCKASSPVLNDIWGQGTQVTVSS', 540000),
  ('humanized variant VHH7h2 (VHH, Made in E. coli, IMAC purified; tag not specified) VHH: DVQLVESGGGLVQPGGSLRLSCAASGIIFSDNRMDWYRQAPGKQREWVATLASYGWKTYADSVKGRFTISRDNSKNTVYLQMNSLRPEDTAVYYCKASSPVLNDIWGQGTLVTVSS', 470000),
  ('humanized variant VHH7h3 (VHH, Made in E. coli, IMAC purified; tag not specified) VHH: DVQLVESGGGLVQPGGSLRLSCAASGIIFSDNRMDWYRQAPGKQREWVATLASYGWKTYADSVKGRFTISRDNTKNTVYLQMNSLRPEDTAVYYCKASSPVLNDIWGQGTLVTVSS', 460000),
  ('humanized variant VHH8h1 (VHH, Made in E. coli, IMAC purified; tag not specified) VHH: EVQLVESGGGLVQPGGSLRLSCAASGRTFNTYNWGWFRQAPGKEREFVAAIRWSSSKTSYADSVKGRFTISRDNSKNTVYLQMNSLRPEDTAVYYCAASIVDFTTNPSHFGSWGQGTLVTVSS', 450000),
  ('humanized variant VHH8h3 (VHH, Made in E. coli, IMAC purified; tag not specified) VHH: DVQLVESGGGLVQAGGSLRLSCAASGRTFNTYNWGWFRQAPGKEREFVAAIRWSSSKTSYADSVKGRFTISRDNSKNTVYLQMNSLRPEDTAVYYCAASIVDFTTNPSHFGSWGQGTLVTVSS', 290000);

Req: Give the measured kon of humanized variant VHH7h1 (VHH, Made in E. coli, IMAC purified; tag not specified) VHH: EVQLVESGGGLVQPGGSLRLSCAASGIIFSDNRMDWYRQAPGKQREWVATLASYGWKTYADSVKGRFTISRDNSKNTVYLQMNSLRPEDTAVYYCKASSPVLNDIWGQGTLVTVSS .
Resp: 500000

Req: Look up kon: anti-CI-M6PR VHH8 (VHH, Purified by IMAC, so tagged; Labelled with Alexa Fluor 488 (NHS ester) in the imaging experiments) VHH: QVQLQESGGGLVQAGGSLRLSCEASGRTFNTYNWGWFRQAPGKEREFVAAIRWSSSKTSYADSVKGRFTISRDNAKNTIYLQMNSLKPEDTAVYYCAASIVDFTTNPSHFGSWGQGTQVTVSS
Resp: 610000

Req: What value of measured kon is listed for humanized variant VHH8h2 (VHH, Made in E. coli, IMAC purified; tag not specified) VHH: DVQLVESGGGLVQPGGSLRLSCAASGRTFNTYNWGWFRQAPGKEREFVAAIRWSSSKTSYADSVKGRFTISRDNSKNTVYLQMNSLRPEDTAVYYCAASIVDFTTNPSHFGSWGQGTLVTVSS ?
Resp: 220000
